Just for reference, PubChem BioAssay AID1963839 is where these values come from.

System: 817829-284-R-J1-PDC complex spheroid viability
measurement.notes: Anticancer human tumor 817829-284-R-J1-PDC patient-derived colon adenocarcinoma cell line growth inhibition [POLQ]
setup.conditions: second compound 0.316 µM; first compound 0.0316 µM; stronger effect = lower value
Strictly below 50% in viability, T/C: YES. Otherwise: NO.

molecule	answer.label
Cn1ncnc1[C@H]1c2n[nH]c(=O)c3cc(F)cc(c23)N[C@@H]1c1ccc(F)cc1 + Nc1ccc(C#CCN(C(=O)Cc2ncc(C(F)(F)F)cc2C(F)(F)F)c2ccc(F)cc2)nn1	YES
Cn1ncnc1[C@H]1c2n[nH]c(=O)c3cc(F)cc(c23)N[C@@H]1c1ccc(F)cc1 + COC1C(OC(N)=O)C(O)C(Oc2ccc3c(O)c(NC(=O)c4ccc(O)c(CC=C(C)C)c4)c(=O)oc3c2C)OC1(C)C	YES
COc1ccc([C@@H](O)c2cc(-c3ncnc4cc(N5CCOCC5)ccc34)c(F)cc2Cl)nn1 + Cc1cccc(N(C)C(=O)C2C(O)CCN2c2nc(C)cc(C(F)(F)F)c2C#N)c1	NO
C#Cc1c(F)ccc2cc(O)cc(-c3ncc4c(N5CC6CCC(C5)N6)nc(OCC56CCCN5CC(F)C6)nc4c3F)c12 (stereo not given) + Nc1ccc(C#CCN(C(=O)Cc2ncc(C(F)(F)F)cc2C(F)(F)F)c2ccc(F)cc2)nn1	NO

Consider C=CC(=O)N1CCN(c2nc(=O)n(-c3c(C)ccnc3C(C)C)c3nc(-c4c(O)cccc4F)c(F)cc23)C(C)C1 (stereo not given) + Cc1cccc(N(C)C(=O)C2C(O)CCN2c2nc(C)cc(C(F)(F)F)c2C#N)c1 . Does its viability, T/C lie strictly below 50%?
NO

---

Test system: 817829-284-R-J1-PDC complex spheroid viability
measurement.notes: Anticancer human tumor 817829-284-R-J1-PDC cell line growth inhibition [POLQ];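 note: spheroids exposed to compounds for 7 days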;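 for viability, T/C: 100% = DMSO vehicle-treated spheroids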
setup.conditions: second compound 1 µM; first compound 0.001 µM; stronger effect = lower value
Listed here are molecules together with their documented viability, T/C.
Dear colleague, please return just the value in %, with no unit written.

Worked cases, viability, T/C given:
molecule	observed.value
Cn1ncnc1[C@H]1c2n[nH]c(=O)c3cc(F)cc(c23)N[C@@H]1c1ccc(F)cc1 + Cc1cccc(N(C)C(=O)C2C(O)CCN2c2nc(C)cc(C(F)(F)F)c2C#N)c1	97.8
Cn1ncnc1[C@H]1c2n[nH]c(=O)c3cc(F)cc(c23)N[C@@H]1c1ccc(F)cc1 + Nc1ccc(C#CCN(C(=O)Cc2ncc(C(F)(F)F)cc2C(F)(F)F)c2ccc(F)cc2)nn1	93.2

Quick note, viability, T/C for Cn1ncnc1[C@H]1c2n[nH]c(=O)c3cc(F)cc(c23)N[C@@H]1c1ccc(F)cc1 + COC1C(OC(N)=O)C(O)C(Oc2ccc3c(O)c(NC(=O)c4ccc(O)c(CC=C(C)C)c4)c(=O)oc3c2C)OC1(C)C landed at 107

---

System: 817829-284-R-J1-PDC complex spheroid viability
measurement.notes: Anticancer human tumor 817829-284-R-J1-PDC cell line growth inhibition [POLQ];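 note: spheroids exposed to compounds for 7 days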;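 for viability, T/C: 100% = DMSO vehicle-treated spheroids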
setup.conditions: second compound 0.316 µM; first compound 3.16 µM; stronger effect = lower value
Listed here are compounds together with their documented viability, T/C.

compound	observed.value
CC1COCCN1c1cc(C2(S(C)(=N)=O)CC2)nc(-c2ccnc3[nH]ccc23)n1 (stereo not given) + COC1C(OC(N)=O)C(O)C(Oc2ccc3c(O)c(NC(=O)c4ccc(O)c(CC=C(C)C)c4)c(=O)oc3c2C)OC1(C)C	6.66%

# input for lookup
Quick note, viability, T/C for C#Cc1c(F)ccc2cc(O)cc(-c3ncc4c(N5CC6CCC(C5)N6)nc(OCC56CCCN5CC(F)C6)nc4c3F)c12 (stereo not given) + Nc1ccc(C#CCN(C(=O)Cc2ncc(C(F)(F)F)cc2C(F)(F)F)c2ccc(F)cc2)nn1 landed at 116%

---

Test system: 817829-284-R-J1-PDC complex spheroid viability
measurement.notes: Anticancer human tumor 817829-284-R-J1-PDC cell line growth inhibition [POLQ];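 note: spheroids exposed to compounds for 7 days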;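 for viability, T/C: 100% = DMSO vehicle-treated spheroids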
setup.conditions: second compound 10 µM; first compound 0.316 µM; stronger effect = lower value
Listed here are molecules together with their documented viability, T/C.
Dear colleague, please return just the value in %, with no unit written.

Worked cases, viability, T/C given:
molecule	observed.value
COc1ccc([C@@H](O)c2cc(-c3ncnc4cc(N5CCOCC5)ccc34)c(F)cc2Cl)nn1 + COC1C(OC(N)=O)C(O)C(Oc2ccc3c(O)c(NC(=O)c4ccc(O)c(CC=C(C)C)c4)c(=O)oc3c2C)OC1(C)C	80
O=c1[nH]cc(F)c(=O)[nH]1 + Nc1ccc(C#CCN(C(=O)Cc2ncc(C(F)(F)F)cc2C(F)(F)F)c2ccc(F)cc2)nn1	85.5
C=CC(=O)N1CCN(c2nc(=O)n(-c3c(C)ccnc3C(C)C)c3nc(-c4c(O)cccc4F)c(F)cc23)C(C)C1 (stereo not given) + Cc1cccc(N(C)C(=O)C2C(O)CCN2c2nc(C)cc(C(F)(F)F)c2C#N)c1	84
COc1cccc(OCCCN)c1-c1cc(Nc2cnc(C#N)cn2)n[nH]1 + Nc1ccc(C#CCN(C(=O)Cc2ncc(C(F)(F)F)cc2C(F)(F)F)c2ccc(F)cc2)nn1	4.01

# input for lookup
Kindly note: 817829-284-R-J1-PDC complex spheroid viability, O=C(Nc1ccc(O)c(NS(=O)(=O)c2ccc(F)cc2)c1)c1ccc(-c2ccccc2)cc1 + Cc1cccc(N(C)C(=O)C2C(O)CCN2c2nc(C)cc(C(F)(F)F)c2C#N)c1 , viability, T/C value reported: 92.5

---

System: 817829-284-R-J1-PDC complex spheroid viability
measurement.notes: Anticancer human tumor 817829-284-R-J1-PDC cell line growth inhibition [POLQ];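 note: spheroids exposed to compounds for 7 days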
setup.conditions: curve of first compound; second compound 0.0316 µM
Listed here are compounds together with their documented IC50.
Dear colleague, please return just the value in nM, with no unit written.

compound	measurement.target	IC50 / nM
CC1COCCN1c1cc(C2(S(C)(=N)=O)CC2)nc(-c2ccnc3[nH]ccc23)n1 (stereo unspecified) + Nc1ccc(C#CCN(C(=O)Cc2ncc(C(F)(F)F)cc2C(F)(F)F)c2ccc(F)cc2)nn1	817829-284-R-J1-PDC complex spheroid viability	313
CC1COCCN1c1cc(C2(S(C)(=N)=O)CC2)nc(-c2ccnc3[nH]ccc23)n1 (stereo unspecified) + Cc1cccc(N(C)C(=O)C2C(O)CCN2c2nc(C)cc(C(F)(F)F)c2C#N)c1	817829-284-R-J1-PDC complex spheroid viability	377
O=c1[nH]cc(F)c(=O)[nH]1 + Nc1ccc(C#CCN(C(=O)Cc2ncc(C(F)(F)F)cc2C(F)(F)F)c2ccc(F)cc2)nn1	817829-284-R-J1-PDC complex spheroid viability	1250
Cn1ncnc1[C@H]1c2n[nH]c(=O)c3cc(F)cc(c23)N[C@@H]1c1ccc(F)cc1 + Cc1cccc(N(C)C(=O)C2C(O)CCN2c2nc(C)cc(C(F)(F)F)c2C#N)c1	817829-284-R-J1-PDC complex spheroid viability	10.2
CC(C)n1c(=O)n(C)c2cnc3cc(F)c(-c4ccc(OCCCN5CCCCC5)nc4)cc3c21 + Cc1cccc(N(C)C(=O)C2C(O)CCN2c2nc(C)cc(C(F)(F)F)c2C#N)c1	817829-284-R-J1-PDC complex spheroid viability	6740

Kindly note: 817829-284-R-J1-PDC complex spheroid viability, CNCc1ccc(-c2[nH]c3cc(F)cc4c3c2CCNC4=O)cc1 + Nc1ccc(C#CCN(C(=O)Cc2ncc(C(F)(F)F)cc2C(F)(F)F)c2ccc(F)cc2)nn1 , IC50 value reported: 6740

Kindly note: 817829-284-R-J1-PDC complex spheroid viability, COc1cccc(OCCCN)c1-c1cc(Nc2cnc(C#N)cn2)n[nH]1 + Cc1cccc(N(C)C(=O)C2C(O)CCN2c2nc(C)cc(C(F)(F)F)c2C#N)c1 , IC50 value reported: 4.8

---

Tested on: 817829-284-R-J1-PDC complex spheroid viability
measurement.notes: Anticancer human tumor 817829-284-R-J1-PDC cell line growth inhibition [POLQ];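 note: spheroids exposed to compounds for 7 days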;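 for viability, T/C: 100% = DMSO vehicle-treated spheroids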
setup.conditions: second compound 0.0316 µM; first compound 0.1 µM; stronger effect = lower value
assay.metric: viability, T/C (%)
Dear colleague, please return just the value in %, with no unit written.

Worked cases, viability, T/C given:
compound	observed.value
C#Cc1c(F)ccc2cc(O)cc(-c3ncc4c(N5CC6CCC(C5)N6)nc(OCC56CCCN5CC(F)C6)nc4c3F)c12 (stereo not given) + Nc1ccc(C#CCN(C(=O)Cc2ncc(C(F)(F)F)cc2C(F)(F)F)c2ccc(F)cc2)nn1	105
CC[C@@]1(O)C(=O)OCc2c1cc1n(c2=O)Cc2cc3c(CN(C)C)c(O)ccc3nc2-1 + COC1C(OC(N)=O)C(O)C(Oc2ccc3c(O)c(NC(=O)c4ccc(O)c(CC=C(C)C)c4)c(=O)oc3c2C)OC1(C)C	16.1
CNCc1ccc(-c2[nH]c3cc(F)cc4c3c2CCNC4=O)cc1 + COC1C(OC(N)=O)C(O)C(Oc2ccc3c(O)c(NC(=O)c4ccc(O)c(CC=C(C)C)c4)c(=O)oc3c2C)OC1(C)C	94

Quick note, viability, T/C for Nc1ccn(C2OC(CO)C(O)C2(F)F)c(=O)n1 (stereo not given) + Nc1ccc(C#CCN(C(=O)Cc2ncc(C(F)(F)F)cc2C(F)(F)F)c2ccc(F)cc2)nn1 landed at 4.05

Quick note, viability, T/C for Cn1ncnc1[C@H]1c2n[nH]c(=O)c3cc(F)cc(c23)N[C@@H]1c1ccc(F)cc1 + Cc1cccc(N(C)C(=O)C2C(O)CCN2c2nc(C)cc(C(F)(F)F)c2C#N)c1 landed at 25.8
